Subject Of Test: Recombinant STAT3 protein (STAT3 (G127-I722)) (Homo sapiens, UniProt P40763)
Construct: Recombinant STAT3 protein (STAT3 (G127-I722))
Sequence (P40763 127-722): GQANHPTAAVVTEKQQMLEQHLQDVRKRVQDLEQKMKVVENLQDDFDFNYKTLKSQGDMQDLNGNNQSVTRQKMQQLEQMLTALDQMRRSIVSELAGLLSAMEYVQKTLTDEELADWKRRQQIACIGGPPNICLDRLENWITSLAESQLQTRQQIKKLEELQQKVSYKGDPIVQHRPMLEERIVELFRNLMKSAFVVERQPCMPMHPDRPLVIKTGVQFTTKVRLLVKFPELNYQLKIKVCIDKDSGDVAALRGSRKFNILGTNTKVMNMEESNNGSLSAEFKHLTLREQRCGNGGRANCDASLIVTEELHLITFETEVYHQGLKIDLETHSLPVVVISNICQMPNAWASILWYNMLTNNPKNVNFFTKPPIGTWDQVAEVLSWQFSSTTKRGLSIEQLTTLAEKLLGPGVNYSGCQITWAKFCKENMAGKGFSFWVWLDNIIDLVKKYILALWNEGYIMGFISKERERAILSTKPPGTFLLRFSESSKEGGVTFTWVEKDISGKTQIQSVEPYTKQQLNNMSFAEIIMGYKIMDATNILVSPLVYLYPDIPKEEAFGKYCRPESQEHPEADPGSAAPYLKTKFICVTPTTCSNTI
Method Notes: STAT3 Fluorescence Polarization (FP) Assay
Assay type: binding
Protocol Conditions: STAT3 25 nM, probe 5-FAM-GpYLPQTV-NH2 2 nM, 45-minute incubation; read-out: STAT3 (FP assay IC50)
Readout Name: IC50

Compound	IC50
O=C(N[C@H]1CCCC[C@H]2CC[C@@H](C(=O)N3CC4(CC(C5CC5)=NO4)C3)N2C1=O)c1cc2cc(C(F)(F)P(=O)(O)O)ccc2s1 [Compound 72]	100 to 1000 nM
C#Cc1ncoc1C1CN(C(=O)[C@@H]2CC[C@@H]3CCCC[C@H](NC(=O)c4cc5cc(C(F)(F)P(=O)(O)O)ccc5s4)C(=O)N32)C1 [Compound 64]	< 100 nM
O=C(N[C@H]1CCCC[C@H]2CC[C@@H](C(=O)N3CC(Oc4ccccc4)C3)N2C1=O)c1cc2cc(C(F)(F)P(=O)(O)O)ccc2s1 [Compound 39]	100 to 1000 nM
O=C(N[C@H]1CCCC[C@H]2CC[C@@H](C(=O)Nc3ccc4nccc(Cl)c4c3)N2C1=O)c1cc2cc(C(F)(F)P(=O)(O)O)ccc2s1 [Compound 55]	100 to 1000 nM
CCCC(=O)NC1(c2ccccn2)CN(C(=O)[C@@H]2CC[C@@H]3CCCC[C@H](NC(=O)c4cc5cc(C(F)(F)P(=O)(O)O)ccc5s4)C(=O)N32)C1 [Compound 122]	< 100 nM

Exercise: Reported IC50 for N#C[C@H]1CN(C(=O)[C@@H]2CC[C@@H]3/C=C\CC[C@H](NC(=O)c4cc5cc(C(F)(F)P(=O)(O)O)ccc5s4)C(=O)N32)C[C@@H]1c1ccccc1 (relative stereo) [Compound 27] : what is it?
Solution: 1000 to 10000 nM
